This collection of values is drawn from patent US10759751B2.

Overview of reported Emax across a group of compounds:
Molecular target: human muscarinic M2 receptor (Homo sapiens, UniProt P08172)
Sequence (P08172 whole entry): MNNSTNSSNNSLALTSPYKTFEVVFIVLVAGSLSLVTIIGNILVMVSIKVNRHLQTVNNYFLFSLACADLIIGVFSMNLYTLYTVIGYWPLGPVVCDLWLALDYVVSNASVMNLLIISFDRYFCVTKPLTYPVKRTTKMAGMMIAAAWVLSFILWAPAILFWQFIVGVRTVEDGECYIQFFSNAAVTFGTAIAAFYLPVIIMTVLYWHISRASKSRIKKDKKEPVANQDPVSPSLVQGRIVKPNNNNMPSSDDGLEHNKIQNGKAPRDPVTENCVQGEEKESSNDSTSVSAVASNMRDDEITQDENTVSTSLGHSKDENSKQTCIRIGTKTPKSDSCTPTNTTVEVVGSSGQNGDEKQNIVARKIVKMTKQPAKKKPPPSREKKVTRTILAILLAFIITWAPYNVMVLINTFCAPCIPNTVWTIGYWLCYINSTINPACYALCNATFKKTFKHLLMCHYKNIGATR
Assay: Alphascreen Surefire phospho-ERK1/2 functional assay, M2
Format: cell-based
Conditions: CHO, read-out: M2 % Emax cf. ACh
Measurement Name: Emax (%)

{"Compound": "COC(=O)N1CCCN(C2CCC(C#N)(c3ccccc3)CC2)CC1 (mixture of isomers) [3-28 mixture of isomers]", "Measurement Name": "Emax", "Readout Number": 15}
{"Compound": "CCOC(=O)N[C@H]1CCN(C2CCC(C#N)(c3cccc(Cl)c3)CC2)C1 (single isomer, unassigned) [1-10 Isomer 2]", "Measurement Name": "Emax", "Readout Number": 6}
{"Compound": "CCc1noc(C2CC3(CCN(C4CCC5(CC4)C(=O)Nc4ccccc45)C3)C2)n1 (single isomer, unassigned) [26-3 Isomer 1]", "Measurement Name": "Emax", "Readout Number": 11}
{"Compound": "CCOC(=O)N[C@H]1CCN(C2CCC3(CC2)C(=O)Nc2ccccc23)C1 (single isomer, unassigned) [2-1 isomer 1]", "Measurement Name": "Emax", "Readout Number": 2}
{"Compound": "CCOC(=O)N1CCCN(C2CCC(C#N)(c3ccc(OC)cn3)CC2)CC1 (single isomer, unassigned) [3-19 Isomer 2]", "Measurement Name": "Emax", "Readout Number": 5}
{"Compound": "CCOC(=O)N1CCCN(C2CCC(C#N)(c3ccc(C(F)(F)F)cn3)CC2)CC1 (mixture of isomers) [3-21 mixture of isomers]", "Measurement Name": "Emax", "Readout Number": 3}
{"Compound": "CCOC(=O)NCC1CCN(C2CCC(C#N)(c3ccccc3)CC2)CC1 (single isomer, unassigned) [6-2-Isomer 2]", "Measurement Name": "Emax", "Readout Number": 0}
{"Compound": "CCOC(=O)N1CCCN(C2CCC3(CC2)C(=O)Nc2cc(C)ccc23)CC1 (single isomer, unassigned) [4-6 isomer 2]", "Measurement Name": "Emax", "Readout Number": 39}
{"Compound": "Cc1noc([C@H]2CC[C@@H](NC3CCC(C#N)(c4ccccn4)CC3)C2)n1 (single isomer, unassigned) [19-1 Isomer 2]", "Measurement Name": "Emax", "Readout Number": 21}
{"Compound": "Cc1noc([C@@H]2CCCN(C3CCC4(CC3)C(=O)Nc3ccccc34)C2)n1 (single isomer, unassigned) [22-1 Isomer 1]", "Measurement Name": "Emax", "Readout Number": 11}
{"Compound": "CCOC(=O)NCC1CCN(C2CCC3(CC2)C(=O)Nc2ccccc23)CC1 (single isomer, unassigned) [7-2 isomer 1]", "Measurement Name": "Emax", "Readout Number": 37}
{"Compound": "CCOC(=O)N(C)[C@H]1CCN(C2CCC(C#N)(c3ccccc3)CC2)C1 (single isomer, unassigned) [1-20 Isomer 2]", "Measurement Name": "Emax", "Readout Number": 0}
{"Compound": "CCOC(=O)N1CCC2CN(C3CCC(C#N)(c4ccccc4)CC3)CC21 (single isomer, unassigned) [15-1 Isomer 2]", "Measurement Name": "Emax", "Readout Number": 14}
{"Compound": "O=C1Nc2ccccc2C12CCC(N[C@@H]1CC[C@H](c3nc(C(F)(F)F)no3)C1)CC2 (single isomer, unassigned) [24-1 Isomer 1]", "Measurement Name": "Emax", "Readout Number": 16}
{"Compound": "CCOC(=O)N1CCCN(C2CCC(C#N)(c3ccc(OCC)cn3)CC2)CC1 (single isomer, unassigned) [3-20 Isomer 2]", "Measurement Name": "Emax", "Readout Number": 27}
{"Compound": "CCOC(=O)N[C@H]1CCN(C2CCC(C#N)(c3ccc(F)cc3)CC2)C1 (single isomer, unassigned) [1-4 Isomer 2]", "Measurement Name": "Emax", "Readout Number": 3}
{"Compound": "CCOC(=O)N1CCC2(CCN(C3CCC4(CC3)C(=O)Nc3ccccc34)CC2)C1 (single isomer, unassigned) [12-1 isomer 1]", "Measurement Name": "Emax", "Readout Number": 18}
{"Compound": "CCOC(=O)N1CCCN(C2CCC3(CC2)C(=O)Nc2ccc(C)cc23)CC1 (single isomer, unassigned) [4-7 isomer 1]", "Measurement Name": "Emax", "Readout Number": 16}
{"Compound": "COc1ccc2c(c1)C1(CCC(N3CCC4(CC(c5nc(C)no5)C4)C3)CC1)C(=O)N2 (single isomer, unassigned) [26-2 Isomer 1]", "Measurement Name": "Emax", "Readout Number": 6}
{"Compound": "CCOC(=O)N[C@H]1CCN(C2CCC(C#N)(c3ccc(F)cn3)CC2)C1 (single isomer, unassigned) [1-14 Isomer 2]", "Measurement Name": "Emax", "Readout Number": 2}
{"Compound": "COc1ccc2c(c1)C1(CCC(N3CCC[C@@H](c4nc(C)no4)C3)CC1)C(=O)N2 (single isomer, unassigned) [22-2 Isomer 1]", "Measurement Name": "Emax", "Readout Number": 12}
{"Compound": "N#CC1(c2ccccc2)CCC(N2CCCN(C(=O)OCCF)CC2)CC1 (mixture of isomers) [3-29 mixture of isomers]", "Measurement Name": "Emax", "Readout Number": 3}
{"Compound": "CCOC(=O)N[C@H]1CCN(C2CCC(C#N)(c3cccc(C)c3)CC2)C1 (single isomer, unassigned) [1-9 Isomer 2]", "Measurement Name": "Emax", "Readout Number": 6}
{"Compound": "CCOC(=O)N[C@H]1CCN(C2CCC(C#N)(c3cccc(OC)c3)CC2)C1 (single isomer, unassigned) [1-11 Isomer 2]", "Measurement Name": "Emax", "Readout Number": 0}
{"Compound": "CC#CCOC(=O)N1CCCN(C2CCC(C#N)(c3ccncc3)CC2)CC1 (single isomer, unassigned) [3-30 Isomer 1]", "Measurement Name": "Emax", "Readout Number": 6}
{"Compound": "CCOC(=O)N1CCCN(C2CCC3(CC2)C(=O)Nc2cc(OC)ccc23)CC1 (single isomer, unassigned) [4-11 isomer 2]", "Measurement Name": "Emax", "Readout Number": 9}
{"Compound": "CCOC(=O)N1CCCN(C2CCC(C#N)(c3ccc(Cl)cc3)CC2)CC1 (mixture of isomers) [3-6 mixture of isomers]", "Measurement Name": "Emax", "Readout Number": 11}
{"Compound": "Cc1ccc2c(c1)NC(=O)C21CCC(N2CCC[C@@H](c3nc(C)no3)C2)CC1 (single isomer, unassigned) [22-4 Isomer 1]", "Measurement Name": "Emax", "Readout Number": 20}
